System: UT5600 cells (NTR−) lysogens
Test: Replica-plate screening of mutant NTR-expressing lysogens on increasing CB1954 (growth score)
Type: cell-based, E. coli
Parameters: key: 0: Good growth on all concentrations of CB 1954 = vector; Good growth on 100 and 200, faint on 300, ring of growth on 400 μM; Good growth on 100 and 200, ring growth on 300, none or very faint on 400 μM; Good growth on 100, faint to good on 200, none or very faint on 300 and 400 μM; 4: Good growth on 100 μM, none to ring growth on 200 μM = wild type; Good growth on 50 μM, ring on 100 μM, none on 200, 300 or 400 μM; 6: Faint growth on 50 μM, ring on 100 μM; 7: Good growth on 50 μM, none on 100 μM; 8: Ring growth on 50 μM, none on 100 μM; 9: None or very faint growth on 50 μM, none on 100 μM; 10: None or ring growth on 35 μM
Conditions: growth of lysogens on agar with kanamycin, IPTG and 0-400 μM CB1954; wild type = 4, higher = more sensitive
Method: The ligation mix was packaged (Stratagene) into lambda bacteriophage particles that were used to infect UT5600 cells (NTR ^−). As a control wild type NTR was also cloned into this vector (JG16C2). Kanamycin resistant lysogens were selected on agar plates ([…] kanamycin) then individually grown overnight in a well of a 96-well plate in LB+Kanamycin. […]
Endpoint Label: Score

1) Wild type: wild-type E. coli nitroreductase (NTR) encoded by the NfsB gene, SEQ ID NO:1 (protein, listed as Escherichia coli) MDIISVALKRHSTKAFDASKKLTPEQAEQIKTLLQYSPSSTNSQPWHFIVASTEEGKARVAKSAAGNYVFNERKMLDASHVVVFCAKTAMDDVWLKLVVDQEDADGRFATPEAKAANDKGRKFFADMHRKDLHDDAEWMAKQVYLNVGNFLLGVAALGLDAVPIEGFDAAILDAEFGLKEKGYTSLVVVPVGHHSVEDFNATLPKSRLPQNITLTEV; 4
